Test system: Pseudomonas aeruginosa
Test: Antibacterial activity against Pseudomonas aeruginosa MTCC 741 at 10 ug/well after 24 hr by agar well diffusion method
Assay type: functional
Details: MTCC 741, 24 h, read-out: DIZ
PARAMETER: zone of inhibition at 10 µg/disc
Report as: number unit

For the compound "O=C(O)c1cc(-c2ccccc2)nc2cc(N3CCNCC3)ccc12" , what zone of inhibition at 10 µg/disc is on record?
4 mm

Item "O=C(O)c1cc(-c2ccccc2)nc2cc(Nc3ccccc3)ccc12" has what recorded zone of inhibition at 10 µg/disc?
4 mm

For the compound "NS(=O)(=O)c1ccc(Nc2ccc3c(C(=O)O)cc(-c4ccccc4)nc3c2)cc1" , what zone of inhibition at 10 µg/disc is on record?
4 mm

Suppose we examine the compound "COc1ccc(Nc2ccc3c(C(=O)O)cc(-c4ccccc4)nc3c2)cc1" ; what zone of inhibition at 10 µg/disc value has been reported?
8 mm

I have this compound here, "O=C(O)CNc1ccc2c(C(=O)O)cc(-c3ccccc3)nc2c1" , and I need its recorded zone of inhibition at 10 µg/disc.
4 mm

Consider the compound "O=C(O)c1cc(-c2ccccc2)nc2cc(Nc3nccs3)ccc12" and give its measured zone of inhibition at 10 µg/disc.
15 mm

Param item = CC1COc2c(N3CCN(C)CC3)c(F)cc3c(=O)c(C(=O)O)cn1c23 (stereo not given) [OFLOXACIN] ; retrieve measured zone of inhibition at 10 µg/disc.
16 mm

Look up zone of inhibition at 10 µg/disc for this compound: "NC(=O)Nc1ccc2c(C(=O)O)cc(-c3ccccc3)nc2c1"
9 mm

Fill in the blank: the reported zone of inhibition at 10 µg/disc of "O=C(O)c1cc(-c2ccccc2)nc2cc(Nc3ccncc3)ccc12" is ____.
5 mm

Record request: zone of inhibition at 10 µg/disc value, item "O=C(O)c1cc(-c2ccccc2)nc2cc(Cl)ccc12"
2 mm

----------
For each of the compounds below, state its zone of inhibition at 10 µg/disc.
Test system: Bacillus subtilis
Assay: Antibacterial activity against Bacillus subtilis MTCC 2397 at 10 ug/well after 24 hr by agar well diffusion method
Type: functional
Settings: MTCC 2397, 24 h, read-out: DIZ
Numbers only; they are read as mm.

Recorded zone of inhibition at 10 µg/disc for "O=C(O)c1cc(-c2ccccc2)nc2cc(Nc3nccs3)ccc12" with Bacillus subtilis, please?
9

# returns recorded zone of inhibition at 10 µg/disc (system: Bacillus subtilis) for "Cc1ccc(Nc2ccc3c(C(=O)O)cc(-c4ccccc4)nc3c2)cc1"
6

Give the reported zone of inhibition at 10 µg/disc for "O=C(O)c1cc(-c2ccccc2)nc2cc(Nc3ccccc3)ccc12" (system: Bacillus subtilis).
9
